I'd appreciate it if you could supply Kd values for the items below.
- Test: Cu(II) complexation by spectrophotometric titration
- Assay type: physicochemical
- Condition Context: calculated at pH 7.4; read-out: conditional dissociation constant (K’d) for the copper complex
- Experimental: The metal complexation studies were performed by spectrophotometric titration, in the same 50% w/w DMSO/water medium used for both ligands alone, with fitting analysis of the UV-Vis spectra by Psequad. The calculated metal-chelating equilibrium models, included in Table 1, show good chelating capacity towards Cu(II) (pCu~10.3–13.6) and Fe(III) (pFe~16.8–17.4), involving complex species with a 1:1 to 1:2 or 1:1 to 1:3 M/L ratio, respectively. […]
Remember to follow the number with its unit.

Compound: CCN(C)C(=O)Oc1cccc(NC(=O)c2cccc3[nH]c(-c4ccccc4O)nc23)c1 [5a]
Kd: 0.098 nM

The compound listed as CCN(C)C(=O)Oc1cccc(CCNC(=O)c2ccc3[nH]c(-c4ccccc4O)nc3c2)c1 [4c] shows Kd equal to 32 nM

====

- System Under Test: hMAO-A (Homo sapiens)
- Construct: purchased Sigma-Aldrich Quimica S.A., Madrid, Spain; host or cells: insect cells (BTI-TN-5B1-4) infected with recombinant baculovirus
- Sequence (P21397 whole entry): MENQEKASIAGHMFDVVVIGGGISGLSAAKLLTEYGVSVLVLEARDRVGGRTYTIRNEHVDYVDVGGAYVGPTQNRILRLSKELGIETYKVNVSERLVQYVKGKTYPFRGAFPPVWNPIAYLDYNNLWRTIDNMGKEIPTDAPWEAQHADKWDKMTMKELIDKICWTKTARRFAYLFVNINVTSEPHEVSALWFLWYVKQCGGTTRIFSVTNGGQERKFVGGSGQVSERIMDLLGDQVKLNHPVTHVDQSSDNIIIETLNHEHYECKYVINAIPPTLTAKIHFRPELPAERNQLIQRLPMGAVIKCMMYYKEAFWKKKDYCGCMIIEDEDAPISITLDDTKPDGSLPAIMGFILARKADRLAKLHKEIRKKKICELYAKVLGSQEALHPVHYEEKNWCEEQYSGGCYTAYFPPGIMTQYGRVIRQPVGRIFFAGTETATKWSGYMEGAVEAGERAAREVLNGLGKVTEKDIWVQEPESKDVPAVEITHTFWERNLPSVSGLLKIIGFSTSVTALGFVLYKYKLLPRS
- Test: hMAO-A inhibition (kynuramine to 4-hydroxyquinoline, microsomal recombinant enzyme)
- Format: biochemical
- Condition Context: read-out: % Inhibition (at 10 µM) hMAO-A
- Protocol: The inhibitory activity of the rivastigmine hybrids (RIV–BIM) on hMAO-A and hMAO-B was studied using an experimental protocol described elsewhere with some modifications. The outlined hMAO inhibition was assessed in microsomal MAO isoforms prepared from insect cells (BTI-TN-5B1-4) infected with recombinant baculovirus containing cDNA inserts for hMAO-A or hMAO-B (Sigma-Aldrich Quimica S.A., Madrid, Spain) and by measuring the enzymatic conversion rates of kynuramine into 4-hydroxyquinoline. […]
Assay Endpoint: inhibition at 10 µM

These recorded examples may help you get a feel for the data.
Compound: CCN(C)C(=O)Oc1cccc(CCNC(=O)c2ccc3[nH]c(-c4ccccc4O)nc3c2)c1 [4c]
inhibition at 10 µM: 30%
--
Compound: C[C@H](NCc1ccc(OCc2cccc(F)c2)cc1)C(N)=O [Safinamide, safinamide, reference compound]
inhibition at 10 µM: 13%
--
Compound: CCN(C)C(=O)Oc1cccc(CNC(=O)c2cccc3[nH]c(-c4ccccc4O)nc23)c1 [5b]
inhibition at 10 µM: 22%

Turning to the following compound.
Summary line: CCN(C)C(=O)Oc1cccc(NC(=O)c2cccc3[nH]c(-c4ccccc4O)nc23)c1 [5a] , hMAO-A (Homo sapiens), reported inhibition at 10 µM = 33%
